Where these numbers come from: the supplement of paper PMC12042874

EXPERIMENT DESCRIPTION: amyloid nucleation score (Sup35N fusion, yeast selection) (log enrichment); library NNK2; higher = more nucleation; inactive = no reads after selection;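 further: zero at mode of non-aggregating sequences after 7 days selection at 30°C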
READOUT TYPE: amyloid nucleation score

Input line: What does the record list as amyloid nucleation score for VGNLRGYVKLVISFSVLRHK ?
Output line: inactive

Input line: What does the record list as amyloid nucleation score for LLSKFF ?
Output line: inactive

Input line: What does the record list as amyloid nucleation score for PFCCLWFGLMHSSGVFRFMG ?
Output line: inactive

====

EXPERIMENT DESCRIPTION: amyloid nucleation score (Sup35N fusion, yeast selection) (log enrichment); library NNK1; higher = more nucleation; inactive = no reads after selection
READOUT TYPE: amyloid nucleation score

Input line: What does the record list as amyloid nucleation score for FSGCQSARGKLWVSDWEL ?
Output line: inactive

Input line: What does the record list as amyloid nucleation score for YVFRPLVERDRSLMKLVQQL ?
Output line: inactive

Input line: What does the record list as amyloid nucleation score for RIFFYTISYPLILIKVFCYL ?
Output line: inactive

====

EXPERIMENT DESCRIPTION: amyloid nucleation score (Sup35N fusion, yeast selection) (log enrichment); library NNK2; higher = more nucleation; inactive = no reads after selection
Please enter criterion met where amyloid nucleation score is greater than or equal to 0.2, and criterion not met where it is lower.

See these solved cases before continuing.
Input line: Record DIHQFGCTHIGCVIGYCCRV ; criterion: amyloid nucleation score no lower than 0.2. Met?
Output line: criterion met

Input line: Record AFHRECPGSSVQDWFTWRGT ; criterion: amyloid nucleation score no lower than 0.2. Met?
Output line: criterion not met

Input line: Record NCSLCFENGMAYFCILIEGV ; criterion: amyloid nucleation score no lower than 0.2. Met?
Output line: criterion met

Input line: Record DYCMFFGVTRISSLH ; criterion: amyloid nucleation score no lower than 0.2. Met?
Output line: criterion met

Input line: Record LYVGYSDMPVWSPASVCISI ; criterion: amyloid nucleation score no lower than 0.2. Met?
Output line: criterion not met

Input line: Record FEAYYWLADLNLLCYLGVRS ; criterion: amyloid nucleation score no lower than 0.2. Met?
Output line: criterion met

Input line: Record TAAGLFISNNHMNYFDAIAY ; criterion: amyloid nucleation score no lower than 0.2. Met?
Output line: criterion not met

More entries:
Input line: Record MRWRMCIIFNLVISY ; criterion: amyloid nucleation score no lower than 0.2. Met?
Output line: criterion met

====

The following sequences are listed with their measured amyloid nucleation score values.
EXPERIMENT DESCRIPTION: amyloid nucleation score (Sup35N fusion, yeast selection) (log enrichment); library NNK3; higher = more nucleation; inactive = no reads after selection
Number, no unit, nothing else.

Input line: What does the record list as amyloid nucleation score for VDFRYCCGFV ?
Output line: 0.824

Input line: What does the record list as amyloid nucleation score for VFICSAVTNNSWCERLDFSA ?
Output line: 1.5

Input line: What does the record list as amyloid nucleation score for RDVWDYSREHLYNDDFLIGA ?
Output line: -0.422

Input line: What does the record list as amyloid nucleation score for EVFVLNYNWNVCHWLFVADV ?
Output line: 1.83

Query sequence follows.
Input line: What does the record list as amyloid nucleation score for TSFGYNLGLRRCSYRMTAEW ?
Output line: 1.44

====

EXPERIMENT DESCRIPTION: amyloid nucleation score (Sup35N fusion, yeast selection) (log enrichment); library NNK1; higher = more nucleation; inactive = no reads after selection
READOUT TYPE: amyloid nucleation score

Input line: What does the record list as amyloid nucleation score for TVSLGEQFLFTIAVGYGDSD ?
Output line: inactive

Input line: What does the record list as amyloid nucleation score for IYPKLDCYVAVVLLDLSGVT ?
Output line: inactive

Input line: What does the record list as amyloid nucleation score for GFLLGFCYPPQVQLVHVLTR ?
Output line: inactive

====

EXPERIMENT DESCRIPTION: amyloid nucleation score (Sup35N fusion, yeast selection) (log enrichment); library NNK1; higher = more nucleation; inactive = no reads after selection
READOUT TYPE: amyloid nucleation score

Input line: What does the record list as amyloid nucleation score for IGWNFAFVSGILVW ?
Output line: inactive

Input line: What does the record list as amyloid nucleation score for GLVSSSLGGYVDADSYFECD ?
Output line: inactive

Input line: What does the record list as amyloid nucleation score for IYQLDVLGFDFN ?
Output line: inactive

====

EXPERIMENT DESCRIPTION: amyloid nucleation score (Sup35N fusion, yeast selection) (log enrichment); library NNK1; higher = more nucleation; inactive = no reads after selection
Please enter y where amyloid nucleation score is greater than or equal to 0.6, and n where it is lower.

Input line: Record LDLSSWGTVP ; criterion: amyloid nucleation score no lower than 0.6. Met?
Output line: n

Input line: Record DYNLVSRYVEPSRLVGFLRI ; criterion: amyloid nucleation score no lower than 0.6. Met?
Output line: n

Input line: Record SGWIRLL ; criterion: amyloid nucleation score no lower than 0.6. Met?
Output line: y

Input line: Record FSASFNGLAAGRLASR ; criterion: amyloid nucleation score no lower than 0.6. Met?
Output line: n

Input line: Record MCRLTPRIITDY ; criterion: amyloid nucleation score no lower than 0.6. Met?
Output line: n

More entries:
Input line: Record SDRPMRFNFSNNAYDSHLYL ; criterion: amyloid nucleation score no lower than 0.6. Met?
Output line: n

Input line: Record SVSYRDCVVKILK ; criterion: amyloid nucleation score no lower than 0.6. Met?
Output line: y

Input line: Record RYGPAVLKSSGAAAVGHS ; criterion: amyloid nucleation score no lower than 0.6. Met?
Output line: n

Input line: Record VEIGFFQRHKARIFMGTRSL ; criterion: amyloid nucleation score no lower than 0.6. Met?
Output line: n

Input line: Record FRRVVNVSCTLTHSWIILLM ; criterion: amyloid nucleation score no lower than 0.6. Met?
Output line: n

Input line: Record KRLLFKYRSVNRHTYLFIPV ; criterion: amyloid nucleation score no lower than 0.6. Met?
Output line: n

====

EXPERIMENT DESCRIPTION: amyloid nucleation score (Sup35N fusion, yeast selection) (log enrichment); library NNK3; higher = more nucleation; inactive = no reads after selection
READOUT TYPE: amyloid nucleation score

Please review the entries below; each comes with its answer.
Input line: What does the record list as amyloid nucleation score for VNYHFYKFYGPWRVWNRTRA ?
Output line: 1.95

Input line: What does the record list as amyloid nucleation score for QNCQVLKFRAILFNYLLFLT ?
Output line: inactive

Input line: What does the record list as amyloid nucleation score for LHIHRFWQQPHTNAGRIPHP ?
Output line: inactive

Input line: What does the record list as amyloid nucleation score for AVLGLMLPCFRARRAWIAPP ?
Output line: -0.22

Input line: What does the record list as amyloid nucleation score for DLVYHIEDMFGSMR ?
Output line: 0.547

Query substance follows.
Input line: What does the record list as amyloid nucleation score for QYLCWCCVARRPGSGFRTVV ?
Output line: inactive

====

EXPERIMENT DESCRIPTION: amyloid nucleation score (Sup35N fusion, yeast selection) (log enrichment); library NNK2; higher = more nucleation; inactive = no reads after selection
READOUT TYPE: amyloid nucleation score

Input line: What does the record list as amyloid nucleation score for LHFSICMPTGCDVPPGDKGG ?
Output line: inactive

Input line: What does the record list as amyloid nucleation score for VPSSEYFIVFVCRPLLIVSL ?
Output line: inactive

Input line: What does the record list as amyloid nucleation score for NFDVNSRWDTRTCFLSWLKQ ?
Output line: inactive

Input line: What does the record list as amyloid nucleation score for VIGRCDSL ?
Output line: inactive

====

EXPERIMENT DESCRIPTION: amyloid nucleation score (Sup35N fusion, yeast selection) (log enrichment); library NNK1; higher = more nucleation; inactive = no reads after selection
READOUT TYPE: amyloid nucleation score

Input line: What does the record list as amyloid nucleation score for CSTRLSSKFSDTIYVEVFSF ?
Output line: inactive

Input line: What does the record list as amyloid nucleation score for LHTAETGRLHNAYVILVVYC ?
Output line: inactive

Input line: What does the record list as amyloid nucleation score for FTRSQAV ?
Output line: inactive

====

EXPERIMENT DESCRIPTION: amyloid nucleation score (Sup35N fusion, yeast selection) (log enrichment); library NNK2; higher = more nucleation; inactive = no reads after selection
READOUT TYPE: amyloid nucleation score

Input line: What does the record list as amyloid nucleation score for FSVLMEDHSRFIF ?
Output line: inactive

Input line: What does the record list as amyloid nucleation score for HQVLYTIAISFTIELAVIIA ?
Output line: inactive

Input line: What does the record list as amyloid nucleation score for YFKRSGLSICRTGKLALGWH ?
Output line: inactive

====

EXPERIMENT DESCRIPTION: amyloid nucleation score (Sup35N fusion, yeast selection) (log enrichment); library NNK1; higher = more nucleation; inactive = no reads after selection
READOUT TYPE: amyloid nucleation score
Number, no unit, nothing else.

Please review the entries below; each comes with its answer.
Input line: What does the record list as amyloid nucleation score for DGFCCGIYYILSEMTGHSRS ?
Output line: 1.41

Input line: What does the record list as amyloid nucleation score for TVFYMRPVGSGTGNLNLLQL ?
Output line: 0.906

Input line: What does the record list as amyloid nucleation score for RRVTCGLQGVLRENR ?
Output line: 0.4

Input line: What does the record list as amyloid nucleation score for SGNMNSLYWKSQKCNSYSFP ?
Output line: 0.935

Input line: What does the record list as amyloid nucleation score for GMLRVYWSMSSVFSGMCDRC ?
Output line: 3.94

More entries:
Input line: What does the record list as amyloid nucleation score for APLALSGRVCFWSWFCPLFV ?
Output line: 5.76

Input line: What does the record list as amyloid nucleation score for KFCLDLSYLFSSRTVMYEIV ?
Output line: -0.24

Input line: What does the record list as amyloid nucleation score for RYSQTKDLKVLLQHFFIYKF ?
Output line: -1.23

Input line: What does the record list as amyloid nucleation score for CLVWLGNNFLDSLWGEGGRA ?
Output line: -0.291
